System: Collinsella aerofaciens
method.notes: growth AUC relative to DMSO control (median of replicates) (fraction); higher = more growth (less inhibition), active = hit call of the paper
test.settings: 20 µM; 24 h
Label true for high-side growth AUC (at or above 1) and false for low-side growth AUC (below it).

Is the recorded value of growth AUC equal to or greater than 1 for this compound? CCOC(=O)C(C)Oc1ccc(Oc2nc3ccc(Cl)cc3o2)cc1 (racemic) false

Then what about the compound "S=C([S-])NCCNC(=S)[S-].S=C([S-])NCCNC(=S)[S-].[Mn+2].[Zn+2]" ? true

Then what about the compound "[O-][n+]1nc(-n2ccnc2)nc2ccc(Cl)cc21" ? false

Then what about the compound "COc1nc(N)nc(NC(C)(C)C)n1" ? false

----------
System: Lactobacillus paracasei
method.notes: growth AUC relative to DMSO control (median of replicates) (fraction); higher = more growth (less inhibition), active = hit call of the paper
test.settings: 20 µM; 24 h
# Lookup of reported growth AUC keyed by entry
Give the value as a plain number.

Below are worked cases with known answers.
- CCCCCCC(C)OC(=O)COc1nc(F)c(Cl)c(N)c1Cl (stereo unspecified): 0.942
- Cc1cccc(C)c1N(C(=O)CCl)C1CCOC1=O (stereo unspecified): 1.01
- O=C(NC(=O)c1c(F)cccc1F)Nc1cc(C(F)(F)F)cc(C(F)(F)F)c1Cl: 0.861

State the recorded growth AUC for this entry: "CCCCOC(=O)[C@@H](C)Oc1ccc(Oc2ccc(C(F)(F)F)cn2)cc1" 0.993

Then what about the compound "Br[C@@H]1CC[C@H](Br)[C@H](Br)CC[C@@H](Br)[C@@H](Br)CC[C@H]1Br" ? 0.976

Then what about the compound "CCOC(=O)[C@@H](C)Oc1ccc(Oc2nc3ccc(Cl)cc3o2)cc1" ? 1.03

----------
# Lookup of reported growth AUC keyed by entry
Test system: Bacteroides caccae
method.notes: growth AUC relative to DMSO control (median of replicates) (fraction); higher = more growth (less inhibition), active = hit call of the paper
test.settings: 20 µM; 24 h

Below are worked cases with known answers.
- Cc1cc(CC(C)CC(C)(C)C)n(O)c(=O)c1.NCCO (configuration not stated): 0.993 (inactive)
- COC(=O)Cc1cccc2ccccc12: 1.01 (inactive)

State the recorded growth AUC for this entry: "S=C([S-])NCCNC(=S)[S-].S=C([S-])NCCNC(=S)[S-].[Mn+2].[Zn+2]" 1.02 (inactive)

Then what about the compound "O=C(O)Cc1cccc2ccccc12" ? 0.985 (inactive)

Then what about the compound "Oc1ccc2ccccc2c1N=Nc1ccccc1" ? 0.973 (inactive)

----------
System: Lactobacillus paracasei
method.notes: growth AUC relative to DMSO control (median of replicates) (fraction); higher = more growth (less inhibition), active = hit call of the paper
test.settings: 20 µM; 24 h
observation.type: growth AUC
Give the value as a plain number.

Below are worked cases with known answers.
* CCOC(=O)Cc1[nH]nc2ccc(Cl)cc12 | 0.917
* CNC(=O)/C(=N/OC)c1ccccc1CO/N=C(C)/C(=N/OC)C(/C)=N/OC | 0.998
* Cc1cc(N(C)C)nc(Cl)n1 | 0.99
* COCCN(C(=O)CO)c1c(C)cccc1C(=O)O | 0.996

State the recorded growth AUC for this entry: "CP(=O)(O)CCC(=O)O" 0.999

Then what about the compound "O=C(O)COc1cccc(Cl)c1Cl" ? 0.898

Then what about the compound "Br[C@@H]1CC[C@@H](Br)[C@@H](Br)CC[C@@H](Br)[C@@H](Br)CC[C@H]1Br" ? 0.996

Then what about the compound "COC(=O)c1ccc(C(F)(F)F)nc1S(=O)(=O)[N-]C(=O)Nc1nc(OC)cc(OC)n1.[Na+]" ? 0.921

Then what about the compound CCOc1ccc(C2(C(=O)OC(C#N)c3cccc(Oc4ccccc4)c3)CC2(Cl)Cl)cc1 (configuration not stated) ? 1

Then what about the compound "O=C(O)COc1ccc(Cl)cc1CO" ? 0.993

Then what about the compound "CCOc1ccc2c(c1)C(C)=CC(C)(C)N2" ? 1.02

Then what about the compound "CCOC(=O)c1cnn(C)c1S(=O)(=O)NC(=O)Nc1nc(OC)cc(OC)n1" ? 1.02
